# Study target: T1, SERF2 (human, UniProt P84101 1-59)
# T1 sequence: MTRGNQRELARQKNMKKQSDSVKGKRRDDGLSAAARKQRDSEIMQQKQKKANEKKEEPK
# Assay text: fluorescence polarization/anisotropy; stated as sub-micromolar; FP/anisotropy: 20 mM NaPi pH 7.4, 100 mM KCl, 25 C (20-200 nM probe); NMR: same buffer, 4 C
# Condition parameters: protein: recombinant; tags: His-SUMO removed; AF488-labeled in some assays; label: Cy3; G4
Property: Kd

Task: Report measured Kd; entry is AGGAGGAGGAGGAGG (structured_RNA) [(AGG)5]
Output: < 1000 nM
